assay: Metabolic stability in Sprague-Dawley rat assessed as urinary excretion of unchanged drug level at 200 mg/kg, po after 0 to 72 hrs by HPLC; assay type: ADME, organism-based; set-up: dose 200 mg/kg, route oral; details: urine, read-out: Activity
Parameter measured: dose excreted

What does the data say about its dose excreted? Entry: `O=C(/C=C/c1ccc(O)c(O)c1)O[C@H](Cc1ccc(O)c(O)c1)C(=O)O` 0.077%

====

assay: Metabolic stability in Sprague-Dawley rat assessed as urinary excretion of unchanged drug level at 200 mg/kg, po after 0 to 24 hrs by HPLC; type: ADME, organism-based; design: dose 200 mg/kg, route oral; settings: urine, read-out: Activity
Parameter measured: dose excreted (%)
Quick reminder: number only, in %, skip the unit.

What does the data say about its dose excreted? Entry: `O=C(/C=C/c1ccc(O)c(O)c1)O[C@H](Cc1ccc(O)c(O)c1)C(=O)O` 0.077
